Overview of recorded −80°C for 30 days, RE for various compounds
experiment: Stability of the seven components in rat plasma QC samples; type: physicochemical; details: high QC level, n = 6
Measured parameter: −80°C for 30 days, RE (%)

>  <Compound>
O=C(O)/C=C/c1ccccc1

>  <Measured parameter>
−80°C for 30 days, RE

>  <Result value>
−2.6

$$$$
>  <Compound>
O=C(/C=C/c1ccc(O[C@@H]2O[C@H](CO)[C@@H](O)[C@H](O)[C@H]2O)cc1)c1ccc(O)cc1O

>  <Measured parameter>
−80°C for 30 days, RE

>  <Result value>
4.0

$$$$
>  <Compound>
C=C1CCC[C@]2(C)C[C@]3(O)OC(=O)C(C)=C3C[C@@H]12 [Atractylenolide III, atractylenolide III]

>  <Measured parameter>
−80°C for 30 days, RE

>  <Result value>
14.1

$$$$
>  <Compound>
O=C1C[C@@H](c2ccc(O[C@@H]3O[C@H](CO)[C@@H](O)[C@H](O)[C@H]3O)cc2)Oc2cc(O)ccc21

>  <Measured parameter>
−80°C for 30 days, RE

>  <Result value>
−1.2

$$$$
>  <Compound>
CC1(C)[C@@H](O[C@H]2O[C@H](C(=O)O)[C@@H](O)[C@H](O)[C@H]2O[C@@H]2O[C@H](C(=O)O)[C@@H](O)[C@H](O)[C@H]2O)CC[C@]2(C)[C@H]3C(=O)C=C4[C@@H]5C[C@@](C)(C(=O)O)CC[C@]5(C)CC[C@@]4(C)[C@]3(C)CC[C@@H]12

>  <Measured parameter>
−80°C for 30 days, RE

>  <Result value>
2.7

$$$$
>  <Compound>
CC1(C)[C@@H](O)CC[C@]2(C)[C@H]3C(=O)C=C4[C@@H]5C[C@@](C)(C(=O)O)CC[C@]5(C)CC[C@@]4(C)[C@]3(C)CC[C@@H]12

>  <Measured parameter>
−80°C for 30 days, RE

>  <Result value>
2.6

$$$$
>  <Compound>
C=C(CC[C@@H](C(=O)O)[C@H]1[C@H](O)C[C@@]2(C)C3=CC[C@H]4C(C)(C)[C@@H](O)CC[C@]4(C)C3=CC[C@]12C)C(C)C [Dehydrotumulosic acid, dehydrotumulosic acid]

>  <Measured parameter>
−80°C for 30 days, RE

>  <Result value>
3.0

$$$$

---

test: Pharmacokinetic study of LGZGD components in plasma of normal and NAFLD rats after oral administration (UPLC-MS/MS); format: in vivo, Male Sprague–Dawley rats; details: NAFLD rats compared with normal rats, oral LGZGD

>  <Compound>
O=C1C[C@@H](c2ccc(O[C@@H]3O[C@H](CO)[C@@H](O)[C@H](O)[C@H]3O)cc2)Oc2cc(O)ccc21

>  <AUC0-∞ value decreased (%)>
53.7

$$$$
>  <Compound>
CC1(C)[C@@H](O[C@H]2O[C@H](C(=O)O)[C@@H](O)[C@H](O)[C@H]2O[C@@H]2O[C@H](C(=O)O)[C@@H](O)[C@H](O)[C@H]2O)CC[C@]2(C)[C@H]3C(=O)C=C4[C@@H]5C[C@@](C)(C(=O)O)CC[C@]5(C)CC[C@@]4(C)[C@]3(C)CC[C@@H]12

>  <AUC0-∞ value decreased (%)>
70.8

$$$$
>  <Compound>
C=C1CCC[C@]2(C)C[C@]3(O)OC(=O)C(C)=C3C[C@@H]12 [Atractylenolide III, atractylenolide III]

>  <AUC0-∞ value decreased (%)>
70.8

$$$$
>  <Compound>
O=C(/C=C/c1ccc(O[C@@H]2O[C@H](CO)[C@@H](O)[C@H](O)[C@H]2O)cc1)c1ccc(O)cc1O

>  <AUC0-∞ value decreased (%)>
65.8

$$$$
>  <Compound>
C=C(CC[C@@H](C(=O)O)[C@H]1[C@H](O)C[C@@]2(C)C3=CC[C@H]4C(C)(C)[C@@H](O)CC[C@]4(C)C3=CC[C@]12C)C(C)C [Dehydrotumulosic acid, dehydrotumulosic acid]

>  <AUC0-∞ value decreased (%)>
75.1

$$$$
>  <Compound>
O=C(O)/C=C/c1ccccc1

>  <AUC0-∞ value decreased (%)>
58.1

$$$$
>  <Compound>
CC1(C)[C@@H](O)CC[C@]2(C)[C@H]3C(=O)C=C4[C@@H]5C[C@@](C)(C(=O)O)CC[C@]5(C)CC[C@@]4(C)[C@]3(C)CC[C@@H]12

>  <AUC0-∞ value decreased (%)>
50.6

$$$$

---

assay: Stability of the seven components in rat plasma QC samples; format: physicochemical; conditions: low QC level, n = 6

>  <Compound>
O=C1C[C@@H](c2ccc(O[C@@H]3O[C@H](CO)[C@@H](O)[C@H](O)[C@H]3O)cc2)Oc2cc(O)ccc21

>  <Three freeze–thaw cycles, RE>
10.5%

$$$$
>  <Compound>
CC1(C)[C@@H](O[C@H]2O[C@H](C(=O)O)[C@@H](O)[C@H](O)[C@H]2O[C@@H]2O[C@H](C(=O)O)[C@@H](O)[C@H](O)[C@H]2O)CC[C@]2(C)[C@H]3C(=O)C=C4[C@@H]5C[C@@](C)(C(=O)O)CC[C@]5(C)CC[C@@]4(C)[C@]3(C)CC[C@@H]12

>  <Three freeze–thaw cycles, RE>
−5.9%

$$$$
>  <Compound>
O=C(/C=C/c1ccc(O[C@@H]2O[C@H](CO)[C@@H](O)[C@H](O)[C@H]2O)cc1)c1ccc(O)cc1O

>  <Three freeze–thaw cycles, RE>
−6.8%

$$$$
>  <Compound>
C=C1CCC[C@]2(C)C[C@]3(O)OC(=O)C(C)=C3C[C@@H]12 [Atractylenolide III, atractylenolide III]

>  <Three freeze–thaw cycles, RE>
13.3%

$$$$

---

Overview of recorded Stability during 24 h at 4°C, RE for various molecules
test: Stability of the seven components in rat plasma QC samples; assay type: physicochemical; conditions: auto sampler, high QC level, n = 6

>  <Molecule>
C=C1CCC[C@]2(C)C[C@]3(O)OC(=O)C(C)=C3C[C@@H]12 [Atractylenolide III, atractylenolide III]

>  <Stability during 24 h at 4°C, RE / %>
−4.0

$$$$
>  <Molecule>
O=C(O)/C=C/c1ccccc1

>  <Stability during 24 h at 4°C, RE / %>
−3.7

$$$$
>  <Molecule>
CC1(C)[C@@H](O)CC[C@]2(C)[C@H]3C(=O)C=C4[C@@H]5C[C@@](C)(C(=O)O)CC[C@]5(C)CC[C@@]4(C)[C@]3(C)CC[C@@H]12

>  <Stability during 24 h at 4°C, RE / %>
−8.9

$$$$
>  <Molecule>
CC1(C)[C@@H](O[C@H]2O[C@H](C(=O)O)[C@@H](O)[C@H](O)[C@H]2O[C@@H]2O[C@H](C(=O)O)[C@@H](O)[C@H](O)[C@H]2O)CC[C@]2(C)[C@H]3C(=O)C=C4[C@@H]5C[C@@](C)(C(=O)O)CC[C@]5(C)CC[C@@]4(C)[C@]3(C)CC[C@@H]12

>  <Stability during 24 h at 4°C, RE / %>
−3.3

$$$$

---

Assay: Pharmacokinetic study of LGZGD components in plasma of normal and NAFLD rats after oral administration (UPLC-MS/MS)
Type: in vivo, Male Sprague–Dawley rats
Settings: male, Sprague-Dawley, rat, plasma, po, 23 g/kg, Normal group, male SD rats, oral LGZGD extract 23 g/kg, plasma, mean ± SD, n = 6
From the text: Male Sprague–Dawley rats, weighing 200–220 g, SPF grade, were purchased from Shanghai Sippr-BK laboratory animal Co. Ltd. (Shanghai, China) and raised in the Laboratory Animal Center of Shanghai University of Traditional Chinese Medicine. […] An Agilent 1290 UPLC system was combined with an Agilent 6460 series MS/MS system (Agilent Technologies, Santa Clara, CA, United States) to quantify the analytes in the ESI-positive ionization mode. […]
Each record is given T if its reported Cmax is strictly below 2000 ng/mL. Records at or above 2000 ng/mL are given F.

>  <Compound>
C=C(CC[C@@H](C(=O)O)[C@H]1[C@H](O)C[C@@]2(C)C3=CC[C@H]4C(C)(C)[C@@H](O)CC[C@]4(C)C3=CC[C@]12C)C(C)C [Dehydrotumulosic acid, dehydrotumulosic acid]

>  <Label class>
T

$$$$
>  <Compound>
O=C(O)/C=C/c1ccccc1

>  <Label class>
T

$$$$
>  <Compound>
O=C(/C=C/c1ccc(O[C@@H]2O[C@H](CO)[C@@H](O)[C@H](O)[C@H]2O)cc1)c1ccc(O)cc1O

>  <Label class>
T

$$$$
>  <Compound>
CC1(C)[C@@H](O)CC[C@]2(C)[C@H]3C(=O)C=C4[C@@H]5C[C@@](C)(C(=O)O)CC[C@]5(C)CC[C@@]4(C)[C@]3(C)CC[C@@H]12

>  <Label class>
F

$$$$
>  <Compound>
C=C1CCC[C@]2(C)C[C@]3(O)OC(=O)C(C)=C3C[C@@H]12 [Atractylenolide III, atractylenolide III]

>  <Label class>
T

$$$$
>  <Compound>
O=C1C[C@@H](c2ccc(O[C@@H]3O[C@H](CO)[C@@H](O)[C@H](O)[C@H]3O)cc2)Oc2cc(O)ccc21

>  <Label class>
F

$$$$
>  <Compound>
CC1(C)[C@@H](O[C@H]2O[C@H](C(=O)O)[C@@H](O)[C@H](O)[C@H]2O[C@@H]2O[C@H](C(=O)O)[C@@H](O)[C@H](O)[C@H]2O)CC[C@]2(C)[C@H]3C(=O)C=C4[C@@H]5C[C@@](C)(C(=O)O)CC[C@]5(C)CC[C@@]4(C)[C@]3(C)CC[C@@H]12

>  <Label class>
F

$$$$
